Target: WEE1 (Homo sapiens, UniProt P30291+Q96SW2)
Construct: C-terminal ePL-tagged (DiscoverX, Fremont, CA) full-length WEE1 expression construct; expressed in transfected cells; host or cells: LentiX-HEK293T (Invitrogen), lentivirally transduced; the cells also over-express GSPT1-GN
Sequence (P30291 whole entry): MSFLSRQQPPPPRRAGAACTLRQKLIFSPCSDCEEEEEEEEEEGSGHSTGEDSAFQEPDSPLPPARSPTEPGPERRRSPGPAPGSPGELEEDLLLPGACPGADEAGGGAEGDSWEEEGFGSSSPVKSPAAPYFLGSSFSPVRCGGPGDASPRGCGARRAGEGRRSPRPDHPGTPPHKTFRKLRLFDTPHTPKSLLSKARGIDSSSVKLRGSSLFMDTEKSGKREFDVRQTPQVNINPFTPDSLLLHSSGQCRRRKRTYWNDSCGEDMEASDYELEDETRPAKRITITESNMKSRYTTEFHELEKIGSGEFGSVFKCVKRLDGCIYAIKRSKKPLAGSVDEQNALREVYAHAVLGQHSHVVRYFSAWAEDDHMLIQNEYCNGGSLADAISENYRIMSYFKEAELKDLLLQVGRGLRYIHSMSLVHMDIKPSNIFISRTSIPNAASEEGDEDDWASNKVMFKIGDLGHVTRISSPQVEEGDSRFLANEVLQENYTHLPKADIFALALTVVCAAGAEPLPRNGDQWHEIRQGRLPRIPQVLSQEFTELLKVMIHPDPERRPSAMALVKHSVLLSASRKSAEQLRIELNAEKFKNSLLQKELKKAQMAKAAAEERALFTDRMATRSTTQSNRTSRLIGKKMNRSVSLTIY
Sequence (Q96SW2 whole entry): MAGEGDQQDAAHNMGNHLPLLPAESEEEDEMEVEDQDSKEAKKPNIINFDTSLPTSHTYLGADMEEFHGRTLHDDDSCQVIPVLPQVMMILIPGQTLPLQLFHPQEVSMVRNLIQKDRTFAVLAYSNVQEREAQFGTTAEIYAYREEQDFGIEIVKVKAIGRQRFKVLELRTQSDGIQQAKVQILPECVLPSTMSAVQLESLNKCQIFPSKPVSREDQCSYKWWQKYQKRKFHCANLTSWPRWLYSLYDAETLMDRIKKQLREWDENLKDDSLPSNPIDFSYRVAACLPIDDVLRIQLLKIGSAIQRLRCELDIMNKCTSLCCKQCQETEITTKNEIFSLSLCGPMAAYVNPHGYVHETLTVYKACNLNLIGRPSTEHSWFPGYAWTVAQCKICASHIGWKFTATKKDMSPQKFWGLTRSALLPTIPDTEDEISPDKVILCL
Sequence (Q16531 whole entry partner): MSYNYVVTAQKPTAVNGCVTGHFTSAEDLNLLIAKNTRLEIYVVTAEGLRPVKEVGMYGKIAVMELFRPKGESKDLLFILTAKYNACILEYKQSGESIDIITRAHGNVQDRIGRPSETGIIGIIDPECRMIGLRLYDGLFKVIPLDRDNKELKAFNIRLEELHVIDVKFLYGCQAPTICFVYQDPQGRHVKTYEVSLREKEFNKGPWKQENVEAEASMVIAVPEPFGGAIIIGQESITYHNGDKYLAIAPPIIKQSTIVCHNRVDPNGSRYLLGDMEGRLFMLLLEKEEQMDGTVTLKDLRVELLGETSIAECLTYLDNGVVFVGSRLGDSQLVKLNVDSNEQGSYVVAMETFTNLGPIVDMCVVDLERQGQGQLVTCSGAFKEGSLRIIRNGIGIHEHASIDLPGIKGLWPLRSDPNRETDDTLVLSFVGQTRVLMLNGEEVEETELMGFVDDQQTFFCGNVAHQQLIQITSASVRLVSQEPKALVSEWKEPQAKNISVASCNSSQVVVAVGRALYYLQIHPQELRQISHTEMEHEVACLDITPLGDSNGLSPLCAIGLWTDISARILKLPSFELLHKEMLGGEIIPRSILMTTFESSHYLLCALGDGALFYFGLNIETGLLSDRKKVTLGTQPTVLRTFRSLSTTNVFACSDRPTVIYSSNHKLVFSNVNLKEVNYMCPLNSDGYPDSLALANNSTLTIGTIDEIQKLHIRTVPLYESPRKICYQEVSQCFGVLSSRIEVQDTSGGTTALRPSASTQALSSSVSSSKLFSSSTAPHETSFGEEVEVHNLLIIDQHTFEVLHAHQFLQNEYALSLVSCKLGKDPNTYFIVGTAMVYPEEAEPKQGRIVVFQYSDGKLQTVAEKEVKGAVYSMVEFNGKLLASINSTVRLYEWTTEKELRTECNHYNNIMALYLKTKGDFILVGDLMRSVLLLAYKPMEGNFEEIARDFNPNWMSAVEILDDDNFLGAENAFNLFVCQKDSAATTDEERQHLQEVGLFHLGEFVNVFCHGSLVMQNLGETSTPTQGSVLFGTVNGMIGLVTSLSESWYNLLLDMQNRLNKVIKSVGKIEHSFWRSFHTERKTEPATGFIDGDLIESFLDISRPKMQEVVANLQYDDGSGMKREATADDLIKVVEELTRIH
Experiment: WEE1-ePL degradation assay (293T-LentiX, InCELL Hunter luminescence, 4 hr)
Assay type: cell-based
Settings: lower limit of fit, % of DMSO control signal remaining; 4 hr
recorded-endpoint: 293T-LentiX WEE1-ePL Degradation 4 hr YMin (%)
One number for each entry, in %.

Completed entries (count: 2):
O=C1CC[C@H](N2Cc3cc(O[C@H]4CCN(Cc5cc(F)c6nc(N7C[C@H]8CCO[C@H]8C7)ncc6c5)C4)ccc3C2=O)C(=O)N1 (single isomer, unassigned) [Example 9]: 32.4
O=C1CCC(N2Cc3cc(O[C@@H]4CN(Cc5cc(F)c6nc(C7CCOCC7)ccc6c5)C[C@H]4OC4COC4)ccc3C2=O)C(=O)N1 (relative stereo) [Example 133]: 58.0

Please find the next compound below.
Tell me the measured 293T-LentiX WEE1-ePL Degradation 4 hr YMin (%) of COC[C@@H]1CN(Cc2ccc3nc(N4C[C@H]5CCO[C@H]5C4)ccc3c2)C[C@H]1Oc1ccc2c(c1)CN([C@H]1CCC(=O)NC1=O)C2=O (single isomer, unassigned) [Example 5] , please.
32.3

* * *

I'd appreciate it if you could supply DC50 values for the items below.
Target: WEE1 (Homo sapiens, UniProt P30291+Q96SW2)
Construct: C-terminal ePL-tagged (DiscoverX, Fremont, CA) full-length WEE1 expression construct; expressed in transfected cells; host or cells: LentiX-HEK293T (Invitrogen), lentivirally transduced; the cells also over-express GSPT1-GN
Assay: WEE1-ePL degradation assay (293T-LentiX, InCELL Hunter luminescence, 4 hr)
Type: cell-based
Conditions: LentiX-HEK293T cells expressing WEE1-ePL, 4 hr incubation; read-out: 293T-LentiX WEE1-ePL Degradation 4 hr EC50
Number first, unit second: that is the form wanted.

Study these solved cases before continuing.
O=C1CC[C@H](N2Cc3cc(O[C@@H]4CN(Cc5ccc6nc(N7C[C@H]8CCO[C@H]8C7)ccc6c5)CC4(F)F)ccc3C2=O)C(=O)N1 (single isomer, unassigned) [Example 6]: 2 nM
COC[C@@H]1CN(Cc2ccc3c(ccn3C(=O)C3CCOCC3)c2)C[C@H]1Oc1ccc2c(c1)CN([C@H]1CCC(=O)NC1=O)C2=O [Example 25]: 2 nM
COC[C@@H]1CN(Cc2ccc3ccc(N4CCOCC4)nc3c2F)C[C@H]1Oc1ccc2c(c1)CN([C@H]1CCC(=O)NC1=O)C2=O [Example 105]: 1 nM
O=C1CC[C@H](N2Cc3cc(O[C@@H]4CN(Cc5cc(F)c6nc(N7C[C@@H]8CCO[C@@H]8C7)ccc6c5)CC4(F)F)ccc3C2=O)C(=O)N1 (single isomer, unassigned) [Example 15]: 2 nM
COC[C@@H]1CN(Cc2cc(F)c3nc(C4CCN(CC(F)(F)F)C4)ccc3c2)C[C@H]1Oc1ccc2c(c1)CN([C@H]1CCC(=O)NC1=O)C2=O (relative stereo) [Example 68]: 2 nM
COC[C@@H]1CN(Cc2cc(F)c3nc(N4CCOC5(CC5)C4)ncc3c2)C[C@H]1Oc1ccc2c(c1)CN([C@H]1CCC(=O)NC1=O)C2=O [Example 79]: 1 nM

Now examine the next entry.
Item COC[C@@H]1CN(Cc2cc(F)c3nc(C4CCOC(C)(C)C4)ncc3c2)C[C@H]1Oc1ccc2c(c1)CN([C@H]1CCC(=O)NC1=O)C2=O (stereo partly shown) [Example 91] has what recorded DC50?
4 nM

Sourced from patent US20250197374A1
